Tested on: TK-10 renal
Test: NCI tumour cell line growth inhibition, 48 h
observable: GI50

| query_smiles | GI50 |
| --- | --- |
| CCn1nc(C2CCN(C(=O)CCO)CC2)nc1-c1cnc(N)c(-c2nnc(C(C)(C)C)o2)n1 | 1950 nM |

What reported GI50 corresponds to `OCc1ccc(-c2nc(-c3ccc4c(c3)OCO4)c(-c3ccccn3)[nH]2)cc1` on TK-10 renal?
> 25000 nM

# get_value(readout= GI50, system= TK-10 renal) for `CCCCCSc1ccc2nc(NC(=O)OCC)sc2c1`
2250 nM

Lookup: GI50 / TK-10 renal / `COc1cc(-n2cc(-c3ccc(Cl)cc3)n(-c3ccccc3)c2=O)cc(OC)c1OC`
35500 nM

Entry source: PubChem BioAssay (NCI)
